These measurements were taken from the supplement of paper PMC10567573.

B1: SLC6A17 (parent)
chain: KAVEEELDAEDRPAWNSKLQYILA

Variants of: B1
Assay: protein stability index of a GFP-peptide fusion (GPS, HEK-293T) (PSI 1-6); higher = more stable;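 also: lentivirally expressed fusions sorted by FACS into six bins by GFP to DsRed ratio, PSI derived from sequencing read proportions per bin multiplied by bin number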
Conditions: c terminus: a fixed tail appended
Catalogue of protein stability index values

{"mutation": "E5M", "protein stability index": 2.05}
{"mutation": "W15N", "protein stability index": 4.13}
{"mutation": "E5F", "protein stability index": 1.91}
{"mutation": "K18E", "protein stability index": 3.76}
{"mutation": "E6M", "protein stability index": 1.5}
{"mutation": "N16F", "protein stability index": 2.14}
{"mutation": "E10I", "protein stability index": 1.86}
{"mutation": "S17H", "protein stability index": 2.23}
{"mutation": "W15Q", "protein stability index": 4.04}
{"mutation": "E10Q", "protein stability index": 1.67}
{"mutation": "V3G", "protein stability index": 2.79}
{"mutation": "N16P", "protein stability index": 2.75}
{"mutation": "L23V", "protein stability index": 3.17}
{"mutation": "A14N", "protein stability index": 2.2}
{"mutation": "K1A", "protein stability index": 2.65}
{"mutation": "E6S", "protein stability index": 2.14}
{"mutation": "A24M", "protein stability index": 2.06}
{"mutation": "E10T", "protein stability index": 2.44}
{"mutation": "K18I", "protein stability index": 2.13}
{"mutation": "E10V", "protein stability index": 1.9}
{"mutation": "Q20P", "protein stability index": 3.25}
{"mutation": "L7A", "protein stability index": 3.74}
{"mutation": "A9E", "protein stability index": 2.61}
{"mutation": "E5Q", "protein stability index": 1.96}
{"mutation": "V3H", "protein stability index": 1.52}
{"mutation": "P13F", "protein stability index": 2.63}
{"mutation": "L23D", "protein stability index": 4.9}
{"mutation": "W15G", "protein stability index": 3.82}
{"mutation": "N16E", "protein stability index": 2.81}
{"mutation": "A2T", "protein stability index": 1.83}
{"mutation": "R12F", "protein stability index": 1.76}
{"mutation": "N16Q", "protein stability index": 2.1}
{"mutation": "P13H", "protein stability index": 2.21}
{"mutation": "L19Y", "protein stability index": 2.52}
{"mutation": "V3L", "protein stability index": 2.31}
{"mutation": "P13N", "protein stability index": 2.31}
{"mutation": "A14H", "protein stability index": 2.57}
{"mutation": "E10Y", "protein stability index": 1.93}
{"mutation": "A9C", "protein stability index": 2.65}
{"mutation": "V3S", "protein stability index": 2.65}
{"mutation": "E4L", "protein stability index": 3.26}
{"mutation": "K1D", "protein stability index": 2.96}
{"mutation": "E5R", "protein stability index": 2.04}
{"mutation": "L23H", "protein stability index": 3.84}
{"mutation": "K18S", "protein stability index": 3.07}
{"mutation": "D8G", "protein stability index": 2.07}
{"mutation": "L23T", "protein stability index": 3.91}
{"mutation": "L7K", "protein stability index": 2.85}
{"mutation": "I22R", "protein stability index": 4.15}
{"mutation": "E4R", "protein stability index": 2.98}
{"mutation": "Y21P", "protein stability index": 4.58}
{"mutation": "R12T", "protein stability index": 3.82}
{"mutation": "P13G", "protein stability index": 2.71}
{"mutation": "I22C", "protein stability index": 3.13}
{"mutation": "Q20C", "protein stability index": 2.13}
{"mutation": "K18T", "protein stability index": 3.05}
{"mutation": "K1E", "protein stability index": 3.19}
{"mutation": "E6C", "protein stability index": 2.07}
{"mutation": "L23G", "protein stability index": 3.99}
{"mutation": "E6K", "protein stability index": 2.7}
{"mutation": "A14Y", "protein stability index": 2}
{"mutation": "N16S", "protein stability index": 3.01}
{"mutation": "Y21V", "protein stability index": 2.08}
{"mutation": "A2L", "protein stability index": 1.55}
{"mutation": "A24Y", "protein stability index": 2.18}
{"mutation": "N16V", "protein stability index": 2.58}
{"mutation": "E10G", "protein stability index": 3.72}
{"mutation": "A24L", "protein stability index": 2.28}
{"mutation": "E4N", "protein stability index": 2.63}
{"mutation": "L23R", "protein stability index": 4.42}
{"mutation": "K1Q", "protein stability index": 2.82}
{"mutation": "E10R", "protein stability index": 2.83}
{"mutation": "L19V", "protein stability index": 2.28}
{"mutation": "K18W", "protein stability index": 2.53}
{"mutation": "Q20T", "protein stability index": 2.25}
